Measured on: T1, Epstein-Barr virus BHRF1 a.a. 1-161 with C-terminal avi-6his tag (Epstein-Barr virus)
T1 construct: also called EBV BHRF1; BHRF1-biotin
T1 chain: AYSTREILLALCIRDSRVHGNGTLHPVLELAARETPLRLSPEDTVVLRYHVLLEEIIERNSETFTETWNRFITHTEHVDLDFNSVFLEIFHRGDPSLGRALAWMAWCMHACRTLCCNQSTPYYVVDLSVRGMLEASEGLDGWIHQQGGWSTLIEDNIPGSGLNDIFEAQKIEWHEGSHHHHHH
Test method notes: yeast display library, FACS sort at 400 nM BHRF1, deep sequencing
# Log2 enrichment ratio listing for each entry below
A number alone suffices; assume log2.

Binder | Value unit | Log2 enrichment ratio
Index 54 (designed binder) GDKHEEAKEEAEKKFEKLRIEARLKAEWLKKAGKYGLQLQELWAKLSDYWIAFALEIIGDLFNFLEEHKEKIEKDLKKGEALDDRADDILKDLEKKAKEVSKHAMKLGREAQQFIELG | log2 | -2.24

Log2 enrichment ratio for Index 59 (designed binder) GITLEKLWKEAKEKIRKREDEALLKAEWFKKKANNVLDLNDMKAKMTAKWIALALMAIGDIFNYLLETEIKARLLVRLGLFRQEEAEKKKEEAKEEAIKSSRNIAKRGEEAAKQMEQG is -2.36

Recorded result, Index 37 (designed binder) GDFWLKAIEIAGGRMLERARESWYRALYFILMVKLFYPSDDLRRIFTLRWIAESLKLIGDAFNLFELARELLELYYKYGWITLEKALKALWILLKLEEIFSKASKDLGERLAEEIERG , Log2 enrichment ratio: -2.14

Recorded Log2 enrichment ratio (binder Index 01 (designed binder) GKRLEETVEETERRLREALREVYLLILLLAEEAKKKDLKEQNRHEYVFKWIAFMLMAIGDIFNIAEESKRRLDLFAKWGLHDRNKIDEAKKKIDKLALEAIERAKKYGDWFLNELDKG ): 3.54
